target: T1, Human EphA2 (Ecto), C-terminal polyHis (Human, UniProt P29317 24-537); test: fluorescence polarisation competition; competitor fluorescent Compound 18
T1 construct: extracellular domain; also called EPH receptor A2; ephrin type-A receptor 2
T1 sequence (P29317 24-537): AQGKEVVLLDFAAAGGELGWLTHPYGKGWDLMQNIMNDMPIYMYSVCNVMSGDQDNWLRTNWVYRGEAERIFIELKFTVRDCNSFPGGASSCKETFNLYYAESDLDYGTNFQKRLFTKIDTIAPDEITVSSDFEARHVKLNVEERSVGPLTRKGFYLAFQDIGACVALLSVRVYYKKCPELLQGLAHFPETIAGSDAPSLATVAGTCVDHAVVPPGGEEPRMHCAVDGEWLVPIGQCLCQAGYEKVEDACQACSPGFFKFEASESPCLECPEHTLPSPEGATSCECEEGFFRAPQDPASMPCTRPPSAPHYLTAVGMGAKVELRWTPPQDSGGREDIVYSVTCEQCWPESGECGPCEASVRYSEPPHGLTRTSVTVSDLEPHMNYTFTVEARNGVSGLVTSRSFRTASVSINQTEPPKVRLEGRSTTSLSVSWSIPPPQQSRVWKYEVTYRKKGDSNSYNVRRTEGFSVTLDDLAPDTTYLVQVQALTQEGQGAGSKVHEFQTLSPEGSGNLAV
Starred links: 1 amine or outer side, 2 acyl side, 3 side chain; linkers in the order of their positions; H or OH if unused. Positions of bridges follow the written chain, without caps; N, C: chain ends. Non-standard residues stand in square brackets, D forms with d. Primed or numbered codes have the meaning given here. No end group written: not given here. TBMB′ = 1,3,5-tris(bromomethyl)benzene, 1,3,5-tris(methylene)benzene core, three thioethers to Cys; 1Nal = N[C@@H](Cc1cccc2ccccc12)C(=O)O; TBMB = c1c(C[*:1])cc(C[*:3])cc1C[*:2]; hArg = N=C(N)NCCCC[C@H](N)C(=O)O; Tle = CC(C)(C)[C@H](N)C(=O)O; Aib = CC(C)(N)C(=O)O; Sar = CNCC(=O)O
# note: boundary value 10 nM maps to Not met; Ki below it maps to Met

Worked cases, answers included:
[Sar][Sar]ACP[1Nal]GPFWCP[Tle]N[hArg][Aib]GC (linker 4-11-18 via TBMB) [Bicycle Compound Number 138 (TBMB scaffold)] : Met
[Sar][Sar]ACP[1Nal]GPFWCP[Tle]NRP[dA]C (linker 4-11-18 via TBMB, also called Sar2-ACP(1Nal)GPFWCP(tBuGly)NRP(D-Ala)C) [Bicycle Compound Number 132 (TBMB scaffold)] : Met
[Sar][Sar]ACP[1Nal]GPFWCP[Tle]NR[Aib]GC (linker 4-11-18 via TBMB, also called Sar2-ACP(1Nal)GPFWCP(tBuGly)NR(Aib)GC) [Bicycle Compound Number 131 (TBMB scaffold)] : Not met
[Sar][Sar]ACPWG[Aib]FWCPVNRPGC (linker 4-11-18 via TBMB′, also called Compound 80) [Bicycle Compound Number 80 (TBMB scaffold)] : Not met

Read the next record carefully.
Problem: Ki under 10 nM? Item: [Sar][Sar]ACPWGPFWCPVNRAGC (linker 4-11-18 via TBMB) [Bicycle Compound Number 104 (TBMB scaffold)]
Result: Not met
